Source: patent US20240050428A1

Tested on: MV4;11 cells
PROTOCOL_NOTES: Cell viability assay (CellTiter-Glo) in MV4;11 cells, alone or with gilteritinib
Assay type: cell-based
CONDITION_SUMMARY: Homo sapiens, MV4-11, 72 h, MV4;11 cells, compound with gilteritinib 10 nM, three days, CellTiter-Glo; read-out: MV4; 11 IC50 gilteritinib
Quick reference for IC50 among some compounds
PROPERTY: IC50

| COMPOUND | PROPERTY | REPORTED_RESULT |
| --- | --- | --- |
| O=C1CCC(N2C(=O)c3ccc(NCCC[C@H]4C[C@H](n5cc(-c6cnc7ccc(N8CCN(C9CCC9)CC8)cc7n6)cn5)C4)cc3C2=O)C(=O)N1 (stereo partly shown) [GS-580] | IC50 | < 0.01 µM |
| O=C1CCC(N2C(=O)c3ccc(NCCC[C@H]4C[C@H](n5cc(-c6cccc(C7CC7)n6)cn5)C4)cc3C2=O)C(=O)N1 (stereo partly shown) [GS-447] | IC50 | < 0.01 µM |
| CN1CCC(c2cn([C@H]3C[C@H](CNc4ccc5c(c4)C(=O)N(C4CCC(=O)NC4=O)C5=O)C3)nc2C2CC2)CC1 (stereo partly shown) [GS-460] | IC50 | > 1 µM |
| O=C1CCC(N2C(=O)c3cccc(NCCCC4CC(n5cc(-c6cnc7ccccc7n6)cn5)C4)c3C2=O)C(=O)N1 (stereo not shown) [GS-565] | IC50 | 0.1 to 1 µM |

###

Test system: MOLM-13 cells
PROTOCOL_NOTES: Cell viability assay (CellTiter-Glo) in MOLM-13 cells, alone or with gilteritinib
Format: cell-based
CONDITION_SUMMARY: Homo sapiens, MOLM-13, 72 h, MOLM-13 cells, compound alone (without gilteritinib), three days, CellTiter-Glo; read-out: MOLM-13 IC50
pIC50: −log10 of the molar value.
Entries annotated with measured pIC50

| COMPOUND | TEST_TARGET | pIC50 |
| --- | --- | --- |
| O=C(Cc1cccc(N2CCN(c3ccccn3)CC2)c1)NCc1ccc2c(c1)CN(C1CCC(=O)NC1=O)C2=O (stereo not drawn) | MOLM-13 cells | > 8.00 |
| O=C1CCC(N2C(=O)c3ccc(NCCCCCCn4cc(-c5cnc6cccc(N7CCOCC7)c6n5)cn4)cc3C2=O)C(=O)N1 (stereo not drawn) | MOLM-13 cells | < 6.00 |
| O=C1CCC(N2C(=O)c3ccc(NC[C@H]4C[C@H](n5cc(-c6cnc7c(N8CC(O)C8)cccc7n6)c(C6CC6)n5)C4)cc3C2=O)C(=O)N1 (stereo partly drawn) | MOLM-13 cells | > 8.00 |
| O=C1CCC(N2C(=O)c3ccc(NC[C@H]4C[C@H](n5cc(-c6cnc7ccc(C8CCOCC8)cc7n6)cn5)C4)cc3C2=O)C(=O)N1 (stereo partly drawn) | MOLM-13 cells | 6.00 to 7.00 |
| C[C@@H]1CC(n2cc(-c3cnc4ccccc4n3)cn2)C[C@H](C)N1C(=O)CCCCNc1ccc2c(c1)C(=O)N(C1CCC(=O)NC1=O)C2=O (stereo partly drawn) | MOLM-13 cells | < 6.00 |
| O=C1CCC(N2C(=O)c3ccc(NCCC[C@H]4C[C@H](n5cc(-c6cccc(=O)[nH]6)cn5)C4)cc3C2=O)C(=O)N1 (stereo partly drawn) | MOLM-13 cells | < 6.00 |
